- system_under_test: Drosophila OR49b (Drosophila melanogaster, UniProt Q9V6H2)
- Construct: expressed in transfected cells
- Sequence (Q9V6H2 whole entry): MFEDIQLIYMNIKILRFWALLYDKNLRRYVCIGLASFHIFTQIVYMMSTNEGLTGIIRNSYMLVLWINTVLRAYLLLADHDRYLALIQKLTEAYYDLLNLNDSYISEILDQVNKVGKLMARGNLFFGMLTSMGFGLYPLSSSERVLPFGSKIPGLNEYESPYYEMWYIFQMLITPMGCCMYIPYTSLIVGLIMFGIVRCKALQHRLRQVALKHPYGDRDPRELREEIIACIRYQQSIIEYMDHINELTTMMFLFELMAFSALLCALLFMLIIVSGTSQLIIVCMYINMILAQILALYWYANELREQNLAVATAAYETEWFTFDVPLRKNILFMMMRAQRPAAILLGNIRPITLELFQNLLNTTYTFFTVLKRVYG
- Sequence (Q9VNB5 whole entry partner): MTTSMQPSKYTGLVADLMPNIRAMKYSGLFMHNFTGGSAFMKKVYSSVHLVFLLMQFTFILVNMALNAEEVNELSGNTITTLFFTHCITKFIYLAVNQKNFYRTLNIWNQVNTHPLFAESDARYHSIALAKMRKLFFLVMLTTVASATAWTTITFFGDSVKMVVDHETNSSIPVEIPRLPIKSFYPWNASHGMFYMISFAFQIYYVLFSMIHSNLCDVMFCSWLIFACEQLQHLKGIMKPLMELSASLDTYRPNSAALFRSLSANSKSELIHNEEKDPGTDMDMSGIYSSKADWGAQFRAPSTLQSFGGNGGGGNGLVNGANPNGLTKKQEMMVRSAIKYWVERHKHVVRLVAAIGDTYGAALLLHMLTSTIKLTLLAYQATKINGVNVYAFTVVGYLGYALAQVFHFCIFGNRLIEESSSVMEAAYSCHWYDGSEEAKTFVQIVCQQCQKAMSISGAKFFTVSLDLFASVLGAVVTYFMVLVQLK
- method_description: cell-based
- condition_info: HEK293; 10 μM VOC; 50 μM VUAA1 = 1; read-out: OR49b Average response (VUAA1-normalized)
attribute_measured: activation at 10 µM (%)
All answers are understood in %, so give the number only.

Enquiry: Observed activation at 10 µM on Drosophila OR49b (Drosophila melanogaster, UniProt Q9V6H2) for Cc1ccc(O)cc1 , please.
Return: 11

Enquiry: Likewise for Cc1ccc(C)cc1 ?
Return: 3

###

- system_under_test: Drosophila OR47a (Drosophila melanogaster)
- Construct: expressed in transfected cells
- Sequence (P81921 whole entry): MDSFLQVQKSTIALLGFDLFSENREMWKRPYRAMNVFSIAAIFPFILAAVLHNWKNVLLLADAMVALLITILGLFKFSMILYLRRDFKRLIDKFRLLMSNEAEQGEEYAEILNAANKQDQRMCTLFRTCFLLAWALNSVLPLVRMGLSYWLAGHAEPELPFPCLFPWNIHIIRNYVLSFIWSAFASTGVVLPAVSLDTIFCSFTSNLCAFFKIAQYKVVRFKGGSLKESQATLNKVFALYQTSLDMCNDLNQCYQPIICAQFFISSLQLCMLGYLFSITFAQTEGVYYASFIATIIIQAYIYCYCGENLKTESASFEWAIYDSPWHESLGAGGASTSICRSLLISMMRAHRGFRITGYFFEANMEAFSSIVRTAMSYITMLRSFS
- Sequence (Q9VNB5 whole entry partner): as the sequence (Q9VNB5 whole entry partner) above
- method_description: Calcium ion fluorescence (GCaMP6) assay, OR47a stable HEK293 cell line
- Type: cell-based
- condition_info: EC50, OR47a cell line; fitted Hill equation, Hill coefficient constrained to 1, maximal response max 1
attribute_measured: EC50

Enquiry: Field request: EC50 | item: CCCCCOC(C)=O [pentyl acetate]
Return: 2220 nM
